test: Absorbance and fluorescence emission spectra (SpectraMax M2); assay type: physicochemical; settings: MK library, Table 5
Measure Name: λmax Absorp. (nm)

Nc1ccc(C2=C3C=CC(N4CCCC4)=[N+]3[B-](F)(F)n3c2ccc3-n2cc(C3CC3)nn2)cc1 : 470
Cc1ccccc1CNC1=[N+]2C(=C(c3ccc(N)cc3)c3ccc(-n4cc(CC5CCCCC5)nn4)n3[B-]2(F)F)C=C1 : 475
Nc1ccc(C2=C3C=CC(N4CCCC4)=[N+]3[B-](F)(F)n3c2ccc3-n2cc(CCc3ccccc3)nn2)cc1 : 471

----------
Experiment: Quantum yield measurements versus Acridine Yellow in EtOH
Format: physicochemical
Conditions: MK library, Table 5; excitation 460 nm
Experimental: ^1H-NMR, ^19F-NMR and ^13C-NMR spectra were recorded on Bruker ACF300 (300 MHz), DPX300 (300 MHz) and AMX500 (500 MHz) spectrometers. High resolution mass spectra (ESI) were obtained on a Finnigan/MAT 95XL-T spectrometer. Spectroscopic and quantum yield data were measured on a SpectraMax M2 spectrophotometer (Molecular Devices). Data analysis was performed using GraphPrism 5.0. […]
Measure Name: φ (quantum yield) (%)

Observe how each entry below is paired with its result.
CCOc1ccccc1CNC1=[N+]2C(=C(c3ccc(N)cc3)c3ccc(-n4cc(CC(C)C)nn4)n3[B-]2(F)F)C=C1 : 1.30
CN(Cc1ccccc1)Cc1cn(-c2ccc3n2[B-](F)(F)[N+]2=C(NCc4cc(F)cc(F)c4)C=CC2=C3c2ccc(N)cc2)nn1 : 1.02

A = Nc1ccc(C2=C3C=CC(N4CCc5ccccc5C4)=[N+]3[B-](F)(F)n3c2ccc3-n2cc(C3CC3)nn2)cc1
B = CCCCCC(O)c1cn(-c2ccc3n2[B-](F)(F)[N+]2=C(NCc4cc(OC)ccc4OC)C=CC2=C3c2ccc(N)cc2)nn1 (stereo not shown)
C = Nc1ccc(C2=C3C=CC(N4CCCC4)=[N+]3[B-](F)(F)n3c2ccc3-n2cc(C3CCCC3)nn2)cc1
D = CN(Cc1ccccc1)C1=[N+]2C(=C(c3ccc(N)cc3)c3ccc(-n4cc(CCc5ccccc5)nn4)n3[B-]2(F)F)C=C1
Input line: Arrange the 4 entries by φ (quantum yield) so the values rise. List each label, following the requested order.
Output line: A, D, C, B
(A: 0.12%, D: 0.27%, C: 0.53%, B: 0.86%)
